# Tested on: human venous endothelial cells (HUVECs)
# experimentalDetails: In vitro angiogenesis model (pseudotubule length of HUVECs on matrigel/collagen)
# Assay type: cell-based
# experimentalContext: in vitro
pEC50: −log10 of the molar value.
parameter: pEC50

Give pEC50 for the following molecule: Cc1c(-c2cccc(C(=O)NCCOCCOCCNC(=O)c3cccc(-c4c(C)c(C(=O)c5ccc6c(=O)n(CC(=O)O)c(=O)[nH]c6c5)n5ccccc45)c3)c2)c2ccccn2c1C(=O)c1ccc2c(=O)n(CC(=O)O)c(=O)[nH]c2c1 > 9.00

Return pEC50 for the following molecule: Cc1c(-c2ccc(OCC(=O)NCCCCCCNC(=O)COc3ccc(-c4c(C)c(C(=O)c5ccc6[nH]c(=O)n(CC(=O)O)c(=O)c6c5)n5ccccc45)cc3)cc2)c2ccccn2c1C(=O)c1ccc2[nH]c(=O)n(CC(=O)O)c(=O)c2c1 > 9.00

For the molecule Cc1c(-c2ccc(C(=O)NCCOCCOCCNC(=O)c3ccc(-c4c(C)c(C(=O)c5ccc6c(=O)n(CC(=O)O)c(=O)[nH]c6c5)n5ccccc45)cc3)cc2)c2ccccn2c1C(=O)c1ccc2c(=O)n(CC(=O)O)c(=O)[nH]c2c1 , report pEC50. 8.00

Supply measured pEC50 of Cc1c(-c2cccc(OCC(=O)NCCCCCCNC(=O)COc3cccc(-c4c(C)c(C(=O)c5ccc6[nH]c(=O)n(CC(=O)O)c(=O)c6c5)n5ccccc45)c3)c2)c2ccccn2c1C(=O)c1ccc2[nH]c(=O)n(CC(=O)O)c(=O)c2c1 in your reply. > 7.00

Report measured pEC50; entry is Cc1c(NC(=O)c2cccc(OCC(=O)NCCNC(=O)COc3cccc(C(=O)Nc4c(C)c(C(=O)c5ccc6c(=O)n(CC(=O)O)c(=O)[nH]c6c5)n5ccccc45)c3)c2)c2ccccn2c1C(=O)c1ccc2c(=O)n(CC(=O)O)c(=O)[nH]c2c1 > 8.52

Please report pEC50 for the following molecule: Cc1c(-c2cccc(OCC(=O)NCCCCNC(=O)COc3cccc(-c4c(C)c(C(=O)c5ccc6[nH]c(=O)n(CC(=O)O)c(=O)c6c5)n5ccccc45)c3)c2)c2ccccn2c1C(=O)c1ccc2[nH]c(=O)n(CC(=O)O)c(=O)c2c1 > 7.00

Supply reported pEC50 belonging to this molecule: Cc1c(-c2ccc(OCC(=O)NCCCCNC(=O)COc3ccc(-c4c(C)c(C(=O)c5ccc6[nH]c(=O)n(CC(=O)O)c(=O)c6c5)n5ccccc45)cc3)cc2)c2ccccn2c1C(=O)c1ccc2[nH]c(=O)n(CC(=O)O)c(=O)c2c1 > 7.00
